Reference for the values: paper PMC13376213

Biological target: T1, USP20 DUSP2 domain K833E/K835E (for FP) (human)
T1 chain: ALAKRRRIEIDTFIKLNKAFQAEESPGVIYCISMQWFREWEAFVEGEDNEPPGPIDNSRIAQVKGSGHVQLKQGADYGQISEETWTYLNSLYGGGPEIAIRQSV
Test: FP
pKd: −log10 of the molar value. * marks the point of attachment. FITC = O=C1OC2(c3ccc(O)cc3Oc3cc(O)ccc32)c2ccc(NC(=S)*)cc21
measured endpoint: pKd

Q: Param item = {FITC}-SDDDLAWNIAPQGLQ-NH2 [FITC-GPR137B 348-362] ; retrieve measured pKd.
Ans: < 3.54
